Toxicities PBM values by entry
System: human PBM cells
protocol notes: Cellular toxicity assay, PBM cells
Assay type: cell-based
protocol conditions: cytotoxicity IC50, human PBM cells

# example entries with known answers
compound | result
COC(=O)N[C@H](C(=O)N1C[C@@H](n2cc(C(=O)OC)nn2)C[C@H]1c1ncc(-c2ccc(-c3ccc(-c4cnc([C@@H]5C[C@H](n6cc(C(=O)OC)nn6)CN5C(=O)[C@@H](NC(=O)OC)C(C)C)[nH]4)cc3)cc2)[nH]1)C(C)C | 53 µM
COC(=O)N[C@H](C(=O)N1C[C@H](n2cc([Si](C)(C)C)nn2)C[C@H]1c1ncc(-c2ccc(-c3ccc(-c4cnc([C@@H]5C[C@@H](n6cc([Si](C)(C)C)nn6)CN5C(=O)[C@@H](NC(=O)OC)C(C)C)[nH]4)cc3)cc2)[nH]1)C(C)C | > 100 µM

Attention now turns to another entry.
**Q:** Report Toxicities PBM for COC(=O)N[C@H](C(=O)N1C[C@H](n2cc(-c3ccccc3)nn2)C[C@H]1c1ncc(-c2ccc(-c3ccc(-c4cnc([C@@H]5C[C@@H](n6cc(-c7ccccc7)nn6)CN5C(=O)[C@@H](NC(=O)OC)C(C)C)[nH]4)cc3)cc2)[nH]1)C(C)C tested on human PBM cells.
**A:** > 100 µM

---

System: CEM (human lymphoblastoid) cells
protocol notes: Cellular toxicity assay, CEM cells
Assay type: cell-based
protocol conditions: cytotoxicity IC50, CEM cells
measure: Toxicities CEM (µM)
Reply with just the number (in µM).

# example entries with known answers
compound | experimental target | measure | number
COC(=O)N[C@H](C(=O)N1C[C@@H](n2cc(COC(C)=O)nn2)C[C@H]1c1ncc(-c2ccc(-c3ccc(-c4cnc([C@@H]5C[C@H](n6cc(COC(C)=O)nn6)CN5C(=O)[C@@H](NC(=O)OC)C(C)C)[nH]4)cc3)cc2)[nH]1)C(C)C | CEM (human lymphoblastoid) cells | Toxicities CEM | 13.5
COC(=O)N[C@H](C(=O)N1C[C@H](n2cc([Si](C)(C)C)nn2)C[C@H]1c1ncc(-c2ccc(-c3ccc(-c4cnc([C@@H]5C[C@@H](n6cc([Si](C)(C)C)nn6)CN5C(=O)[C@@H](NC(=O)OC)C(C)C)[nH]4)cc3)cc2)[nH]1)C(C)C | CEM (human lymphoblastoid) cells | Toxicities CEM | 25.2
COC(=O)N[C@H](C(=O)N1C[C@@H](SC)C[C@H]1c1ncc(-c2ccc(-c3ccc(-c4cnc([C@@H]5C[C@H](SC)CN5C(=O)[C@@H](NC(=O)OC)C(C)C)[nH]4)cc3)cc2)[nH]1)C(C)C | CEM (human lymphoblastoid) cells | Toxicities CEM | 13.3
COC(=O)N[C@H](C(=O)N1C[C@@H](n2cc(C(=O)OC)nn2)C[C@H]1c1ncc(-c2ccc(-c3ccc(-c4cnc([C@@H]5C[C@H](n6cc(C(=O)OC)nn6)CN5C(=O)[C@@H](NC(=O)OC)C(C)C)[nH]4)cc3)cc2)[nH]1)C(C)C | CEM (human lymphoblastoid) cells | Toxicities CEM | 13.5

Attention now turns to another entry.
**Q:** Report Toxicities CEM for COC(=O)N[C@H](C(=O)N1C[C@H](n2ccnn2)C[C@H]1c1ncc(-c2ccc(-c3ccc(-c4cnc([C@@H]5C[C@@H](n6cc([Si](C)(C)C)nn6)CN5C(=O)[C@@H](NC(=O)OC)C(C)C)[nH]4)cc3)cc2)[nH]1)C(C)C tested on CEM (human lymphoblastoid) cells.
**A:** 16.2
